Molecular target: T1, EsCas13d, nuclease-dead (Eubacterium siraeum, UniProt B0MS50, R295A;H300A;R849A;H854A)
T1 sequence: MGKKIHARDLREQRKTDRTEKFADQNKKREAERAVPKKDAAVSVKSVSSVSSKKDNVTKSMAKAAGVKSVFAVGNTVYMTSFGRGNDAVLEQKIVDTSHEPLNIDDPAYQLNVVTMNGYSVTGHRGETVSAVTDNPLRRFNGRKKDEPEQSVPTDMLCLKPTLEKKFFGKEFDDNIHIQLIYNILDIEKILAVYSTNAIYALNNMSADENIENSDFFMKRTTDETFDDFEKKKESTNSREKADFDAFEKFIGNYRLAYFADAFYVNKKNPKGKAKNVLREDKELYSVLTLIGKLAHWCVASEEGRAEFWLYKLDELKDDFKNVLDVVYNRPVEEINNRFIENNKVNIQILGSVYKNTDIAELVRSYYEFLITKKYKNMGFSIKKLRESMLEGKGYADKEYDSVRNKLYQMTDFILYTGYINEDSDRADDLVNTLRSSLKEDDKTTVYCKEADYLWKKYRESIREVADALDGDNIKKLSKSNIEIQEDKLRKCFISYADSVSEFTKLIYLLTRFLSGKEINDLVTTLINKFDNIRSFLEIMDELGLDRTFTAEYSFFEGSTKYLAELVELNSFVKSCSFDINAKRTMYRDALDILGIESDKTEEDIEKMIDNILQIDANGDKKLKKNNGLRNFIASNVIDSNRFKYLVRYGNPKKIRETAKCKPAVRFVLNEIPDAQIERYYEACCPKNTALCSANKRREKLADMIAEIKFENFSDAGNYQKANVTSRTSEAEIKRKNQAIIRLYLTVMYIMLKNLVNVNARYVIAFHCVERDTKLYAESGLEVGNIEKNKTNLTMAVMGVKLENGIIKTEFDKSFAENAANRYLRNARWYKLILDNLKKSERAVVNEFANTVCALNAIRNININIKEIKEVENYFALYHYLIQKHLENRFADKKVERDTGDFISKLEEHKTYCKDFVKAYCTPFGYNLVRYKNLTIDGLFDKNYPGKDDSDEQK
Experiment: crRNA (strand 1, pre-loaded); Mg2+; 40 mM Tris-HCl pH 7.5, 150 mM NaCl, 6 mM MgCl2, 1 mM DTT, 0.1% Tween-20, 0.2 mg/ml BSA; 25 C; 10 min per concentration, then washed
Conditions: tags: His6-TwinStrep-SUMO cleaved; N-terminal SNAP kept (SNAP-Surface 488); label: 3' end held by stalled T7 RNA polymerase
Metric: pKd
To interpret pKd, take it as minus log10 of a concentration measured in moles per litre.

Previously resolved entries follow.
# Binder, pKd
records = [
    ("target 2 MT 5'PFS GUG 3'PFS CUG (mixed) RNA 1: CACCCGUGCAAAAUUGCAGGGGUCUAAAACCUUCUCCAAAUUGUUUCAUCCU RNA 2: GGGAAUGGAUCCACAUCUACGAAUUCGUGAGGAUGAAACAAUUUGGAGAAGCUGAGAUCGGAAGAGCACACGU", 8.00),
    ("target 1 insC 3' of 3,insA 3' of 2 (mixed) RNA 1: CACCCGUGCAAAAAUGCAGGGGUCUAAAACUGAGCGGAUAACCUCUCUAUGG RNA 2: GGGAAUGGAUCCACAUCUACGAAUUCGUACCAUAGAGAGGUUAUCCGCUCCAACCGAGAUCGGAAGAGCACACGU", 7.87),
    ("target 1 insG 3' of 16,insU 3' of 12 (mixed) RNA 1: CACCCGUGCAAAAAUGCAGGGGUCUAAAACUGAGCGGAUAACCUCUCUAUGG RNA 2: GGGAAUGGAUCCACAUCUACGAAUUCGUACCAUAGAGGAGGUUUAUCCGCUCACCGAGAUCGGAAGAGCACACGU", 7.91),
    ("target 1 MT 5'PFS GGA 3'PFS UUA (mixed) RNA 1: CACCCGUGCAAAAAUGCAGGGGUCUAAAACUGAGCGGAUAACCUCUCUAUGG RNA 2: GGGAAUGGAUCCACAUCUACGAAUUCGGACCAUAGAGAGGUUAUCCGCUCAUUAAGAUCGGAAGAGCACACGU", 7.85),
    ("target 2 MT 5'PFS UUA 3'PFS CCG (mixed) RNA 1: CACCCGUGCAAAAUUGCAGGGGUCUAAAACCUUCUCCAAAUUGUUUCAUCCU RNA 2: GGGAAUGGAUCCACAUCUACGAAUUCUUAAGGAUGAAACAAUUUGGAGAAGCCGAGAUCGGAAGAGCACACGU", 7.41),
    ("target 1 insA 3' of 21,insU 3' of 13 (mixed) RNA 1: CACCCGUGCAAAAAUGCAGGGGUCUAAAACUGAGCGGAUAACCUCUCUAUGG RNA 2: GGGAAUGGAUCCACAUCUACGAAUUCGUACCAAUAGAGAGUGUUAUCCGCUCACCGAGAUCGGAAGAGCACACGU", 7.59),
]

Ask: Please look up its pKd: target 1 C7U,G13U (mixed) RNA 1: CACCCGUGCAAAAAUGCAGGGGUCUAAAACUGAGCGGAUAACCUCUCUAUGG RNA 2: GGGAAUGGAUCCACAUCUACGAAUUCGUACCAUAGAGAUGUUAUUCGCUCACCGAGAUCGGAAGAGCACACGU
Reply: 7.41

Ask: Also check target 1 C6G,A16G (mixed) RNA 1: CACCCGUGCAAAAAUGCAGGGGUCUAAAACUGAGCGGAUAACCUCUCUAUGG RNA 2: GGGAAUGGAUCCACAUCUACGAAUUCGUACCAUAGGGAGGUUAUCGGCUCACCGAGAUCGGAAGAGCACACGU
Reply: 7.50

Ask: Note, next up: target 1 MT 5'PFS GCG 3'PFS AUU (mixed) RNA 1: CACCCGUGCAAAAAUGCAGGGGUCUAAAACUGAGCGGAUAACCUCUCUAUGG RNA 2: GGGAAUGGAUCCACAUCUACGAAUUCGCGCCAUAGAGAGGUUAUCCGCUCAAUUAGAUCGGAAGAGCACACGU
Reply: 7.70

Ask: Follow-up item: target 1 A1G,G12A (mixed) RNA 1: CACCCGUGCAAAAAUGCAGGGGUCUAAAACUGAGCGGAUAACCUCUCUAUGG RNA 2: GGGAAUGGAUCCACAUCUACGAAUUCGUACCAUAGAGAGAUUAUCCGCUCGCCGAGAUCGGAAGAGCACACGU
Reply: 8.23

Ask: Next binder: target 2 MT 5'PFS CAU 3'PFS UUC (mixed) RNA 1: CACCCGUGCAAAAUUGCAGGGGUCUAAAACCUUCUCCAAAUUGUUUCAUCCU RNA 2: GGGAAUGGAUCCACAUCUACGAAUUCCAUAGGAUGAAACAAUUUGGAGAAGUUCAGAUCGGAAGAGCACACGU
Reply: 8.04

Ask: Also target 1 insU 3' of 15,insG 3' of 3 (mixed) RNA 1: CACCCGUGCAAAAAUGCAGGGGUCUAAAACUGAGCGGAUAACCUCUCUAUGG RNA 2: GGGAAUGGAUCCACAUCUACGAAUUCGUACCAUAGAGUAGGUUAUCCGCUGCACCGAGAUCGGAAGAGCACACGU , if possible.
Reply: 8.16

Ask: What do you get for target 1 MT 5'PFS GAC 3'PFS AGC (mixed) RNA 1: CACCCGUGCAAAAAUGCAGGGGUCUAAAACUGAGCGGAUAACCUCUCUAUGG RNA 2: GGGAAUGGAUCCACAUCUACGAAUUCGACCCAUAGAGAGGUUAUCCGCUCAAGCAGAUCGGAAGAGCACACGU ?
Reply: 7.87

src = paper PMC10786891
